test system: Hepatic stellate cell strain LX-2; test: In vitro inhibition of hepatic fibrosis: expression of LX-2 cell activation marker α-SMA (Western Blot, α-SMA/β-actin); format: cell-based, human; conditions: LX-2 cells, 1 μM, 48 hours, negative control = 100%
*1 amine or outer side, *2 acyl side, *3 side chain or, on linkers, in order; H or OH if unused. Primed or numbered codes have the meaning given here. Where no end group is shown, it is not given here. Side-chain parts run from the residue outwards. [ ]: non-standard residue; d: D form. The star is where a group is joined. C18 diacid = O=C(O)CCCCCCCCCCCCCCCCC(=O)*; γGlu = O=C(O)[C@H](CCC(=O)[*:2])N[*:1]; Stearoyl = CCCCCCCCCCCCCCCCCC(=O)*; PEG2′ = not defined here
observationType: Relative expression of α-SMA (α-SMA/β-actin, %)

{"columns": ["substance", "displayUnit", "valueObserved"],
 "data": [
  ["His-(D-Ser)-Gln-Gly-Thr-Phe-Thr-Ser-Asp-Tyr-Ser-Lys-Tyr-Leu-Asp-Lys(PEG2-PEG2-γGlu-CO(CH2)16CO2H)-Arg-Arg-Ala-Gln-Asp-Phe-Val-Gln-Trp-Leu-Met-Asn-Thr-Gly-Gly-Pro-Ser-Ser-Gly-Ala-Pro-Pro-Pro-Ser-NH2 (H[dS]QGTFTSDYSKYLDK([PEG2′-PEG2′-γGlu-C18 diacid])RRAQDFVQWLMNTGGPSSGAPPPS-NH2) [Compound 34]", "%", 88.18],
  ["His-(D-Ser)-Gln-Gly-Thr-Phe-Thr-Ser-Asp-Tyr-Ser-Lys-Tyr-Leu-Asp-Ser-Lys(PEG2-PEG2-γGlu-CO(CH2)16CH3)-Ala-Ala-His-Asp-Phe-Val-Glu-Trp-Leu-Leu-Arg-Ala-NH2 (H[dS]QGTFTSDYSKYLDSK([PEG2′-PEG2′-γGlu-Stearoyl])AAHDFVEWLLRA-NH2) [Compound 25]", "%", 93.34]
]}

###

system: Hepatic stellate cell strain LX-2; assay: In vitro inhibition of hepatic fibrosis: expression of LX-2 cell activation marker α-SMA (Western Blot, α-SMA/β-actin); format: cell-based, human; settings: LX-2 cells, 1 μM, 48 hours, negative control = 100%
*1 amine or outer side, *2 acyl side, *3 side chain or, on linkers, in order; H or OH if unused. Primed or numbered codes have the meaning given here. Where no end group is shown, it is not given here. Side-chain parts run from the residue outwards. [ ]: non-standard residue; d: D form. The star is where a group is joined. C18 diacid = O=C(O)CCCCCCCCCCCCCCCCC(=O)*; γGlu = O=C(O)[C@H](CCC(=O)[*:2])N[*:1]; Palmitoyl = CCCCCCCCCCCCCCCC(=O)*; PEG2′ = not defined here; Aib = CC(C)(N)C(=O)O
observationType: Relative expression of α-SMA (α-SMA/β-actin, %)

{"columns": ["substance", "assayedSystem", "valueObserved"],
 "data": [
  ["His-Aib-Gln-Gly-Thr-Phe-Thr-Ser-Asp-Lys(PEG2-PEG2-γGlu-CO(CH2)14CH3)-Ser-Lys-Tyr-Leu-Asp-Aib-Arg-Arg-Ala-Gln-Asp-Phe-Val-Gln-Trp-Leu-Leu-Asp-Gly-Gly-Pro-Ser-Ser-Gly-Ala-Pro-Pro-Pro-Ser-NH2 (H[Aib]QGTFTSDK([PEG2′-PEG2′-γGlu-Palmitoyl])SKYLD[Aib]RRAQDFVQWLLDGGPSSGAPPPS-NH2) [Compound 8]", "Hepatic stellate cell strain LX-2", 80.25],
  ["His-(D-Ser)-Gln-Gly-Thr-Phe-Thr-Ser-Asp-Tyr-Ser-Lys-Tyr-Leu-Asp-Glu-Lys-Ala-Ala-Lys(PEG2-PEG2-γGlu-CO(CH2)14CH3)-Glu-Phe-Ile-Glu-Trp-Leu-Leu-Asn-Gly-Gly-Pro-Ser-Ser-Gly-Ala-Pro-Pro-Pro-Ser-NH2 (H[dS]QGTFTSDYSKYLDEKAAK([PEG2′-PEG2′-γGlu-Palmitoyl])EFIEWLLNGGPSSGAPPPS-NH2) [Compound 29]", "Hepatic stellate cell strain LX-2", 89.36],
  ["His-Aib-Gln-Gly-Thr-Phe-Thr-Ser-Asp-Lys(PEG2-PEG2-γGlu-CO(CH2)16CO2H)-Ser-Lys-Tyr-Leu-Asp-Glu-Arg-Arg-Ala-Gln-Asp-Phe-Val-Gln-Trp-Leu-Leu-Asp-Gly-Gly-Pro-Ser-Ser-Gly-Ala-Pro-Pro-Pro-Ser-NH2 (H[Aib]QGTFTSDK([PEG2′-PEG2′-γGlu-C18 diacid])SKYLDERRAQDFVQWLLDGGPSSGAPPPS-NH2) [Compound 15]", "Hepatic stellate cell strain LX-2", 77.29]
]}

###

tested on: Hepatic stellate cell strain LX-2; assay: In vitro inhibition of hepatic fibrosis: expression of LX-2 cell activation marker α-SMA (Western Blot, α-SMA/β-actin); assay type: cell-based, human; conditions: LX-2 cells, 1 μM, 48 hours, negative control = 100%
*1 amine or outer side, *2 acyl side, *3 side chain or, on linkers, in order; H or OH if unused. Primed or numbered codes have the meaning given here. Where no end group is shown, it is not given here. Side-chain parts run from the residue outwards. [ ]: non-standard residue; d: D form. The star is where a group is joined. C18 diacid = O=C(O)CCCCCCCCCCCCCCCCC(=O)*; γGlu = O=C(O)[C@H](CCC(=O)[*:2])N[*:1]; Stearoyl = CCCCCCCCCCCCCCCCCC(=O)*; PEG2′ = not defined here; Aib = CC(C)(N)C(=O)O
observationType: Relative expression of α-SMA (α-SMA/β-actin, %)

{"columns": ["substance", "assayedSystem", "valueObserved"],
 "data": [
  ["His-(D-Ser)-Gln-Gly-Thr-Phe-Thr-Ser-Asp-Lys(PEG2-PEG2-γGlu-CO(CH2)16CO2H)-Ser-Lys-Tyr-Leu-Asp-Aib-Arg-Arg-Ala-Gln-Asp-Phe-Val-Gln-Trp-Leu-Met-Asn-Thr-Gly-Gly-Pro-Ser-Ser-Gly-Ala-Pro-Pro-Pro-Ser-NH2 (H[dS]QGTFTSDK([PEG2′-PEG2′-γGlu-C18 diacid])SKYLD[Aib]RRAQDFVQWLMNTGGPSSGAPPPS-NH2) [Compound 5]", "Hepatic stellate cell strain LX-2", 67.94],
  ["His-(D-Ser)-Gln-Gly-Thr-Phe-Thr-Ser-Asp-Tyr-Ser-Lys-Tyr-Leu-Asp-Ser-Lys(PEG2-PEG2-γGlu-CO(CH2)16CO2H)-Ala-Ala-His-Asp-Phe-Val-Glu-Trp-Leu-Leu-Arg-Ala-NH2 (H[dS]QGTFTSDYSKYLDSK([PEG2′-PEG2′-γGlu-C18 diacid])AAHDFVEWLLRA-NH2) [Compound 17]", "Hepatic stellate cell strain LX-2", 75.38],
  ["His-(D-Ser)-Gln-Gly-Thr-Phe-Thr-Ser-Asp-Tyr-Ser-Lys-Tyr-Leu-Asp-Aib-Lys(PEG2-PEG2-CO(CH2)16CO2H)-Arg-Ala-Gln-Asp-Phe-Val-Gln-Trp-Leu-Met-Asn-Thr-Gly-Gly-Pro-Ser-Ser-Gly-Ala-Pro-Pro-Pro-Ser-NH2 (H[dS]QGTFTSDYSKYLD[Aib]K([PEG2′-PEG2′-C18 diacid])RAQDFVQWLMNTGGPSSGAPPPS-NH2) [Compound 10]", "Hepatic stellate cell strain LX-2", 71.49],
  ["His-(D-Ser)-Gln-Gly-Thr-Phe-Thr-Ser-Asp-Tyr-Ser-Lys-Tyr-Leu-Asp-Lys(PEG2-PEG2-γGlu-CO(CH2)16CH3)-Arg-Arg-Ala-Gln-Asp-Phe-Val-Gln-Trp-Leu-Met-Asn-Thr-Gly-Gly-Pro-Ser-Ser-Gly-Ala-Pro-Pro-Pro-Ser-NH2 (H[dS]QGTFTSDYSKYLDK([PEG2′-PEG2′-γGlu-Stearoyl])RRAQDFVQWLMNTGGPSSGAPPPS-NH2) [Compound 36]", "Hepatic stellate cell strain LX-2", 62.49],
  ["His-(D-Ser)-Gln-Gly-Thr-Phe-Thr-Ser-Asp-Tyr-Ser-Lys(PEG2-PEG2-CO(CH2)16CH3)-Lys-Leu-Asp-Aib-Arg-Arg-Ala-Gln-Asp-Phe-Val-Gln-Trp-Leu-Met-Asn-Thr-Gly-Gly-Pro-Ser-Ser-Gly-Ala-Pro-Pro-Pro-Ser-NH2 (H[dS]QGTFTSDYSK([PEG2′-PEG2′-Stearoyl])KLD[Aib]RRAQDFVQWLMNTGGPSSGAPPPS-NH2) [Compound 3]", "Hepatic stellate cell strain LX-2", 82.25]
]}
